Sourced from patent US10202378B2

Target: TAF1-BD2 (Homo sapiens, UniProt P21675)
Experiment: TAF1-BD2 TR-FRET Binding Assay
Conditions: read-out: TAF1-BD2 HTRF IC50
Measured IC50 by item
Readout Kind: IC50 (nM)

{"columns": ["Molecule", "Numeric Result"],
 "data": [
  ["CCOC(=O)c1c(C)[nH]c2c(=O)n(C)cc(C#CC(O)(c3ccccc3)C(F)(F)F)c12 (single isomer, unassigned) [Example 91a]", 206],
  ["CCOC(=O)c1c(C)[nH]c2c(=O)n(C)cc(C#CC(C)(C)C(=O)NC)c12", 1320],
  ["CCOC(=O)c1c(C)[nH]c2c(=O)n(C)cc(C#C[C@@](C)(O)c3cc(C)no3)c12", 61],
  ["Cc1[nH]c2c(=O)n(C)cc(C#CC(C)(O)C3CC3)c2c1-c1nnc(C2CCOC2)o1 (single isomer, unassigned) [Example 96b]", 260]
]}

---

Molecular target: TAF1-BD1 (Homo sapiens)
Assay: TAF1-BD1 TR-FRET Binding Assay
Details: read-out: TAF1-BD1 HTRF IC50
pIC50: −log10 of the molar value.

{"columns": ["Molecule", "pIC50"],
 "data": [
  ["CCOC(=O)c1c(C)[nH]c2c(=O)n(C)cc(C#CC3(O)C(=O)N(C)c4ccccc43)c12 (centres unmarked)", 6.24],
  ["CCOC(=O)c1c(C)[nH]c2c(=O)n(C)cc(C#CC(C)(O)CC#N)c12 (centres unmarked)", 6.86],
  ["Cc1[nH]c2c(=O)n(C)cc(C#CC(C)(O)C3CC3)c2c1-c1nnc(C(C)CN2CCOCC2)o1 (centres unmarked)", 6.62],
  ["CCOC(=O)c1c(C)[nH]c2c(=O)n(C)cc(C#CC(O)(c3ccccc3)C(F)F)c12 (single isomer, unassigned) [Example 93a]", 6.22],
  ["CCOC(=O)c1c(C)[nH]c2c(=O)n(C)cc(C#CC(O)(c3ccccc3)C(F)F)c12 (centres unmarked) [Example 89]", 6.56]
]}

---

Measured pIC50 by item
Molecular target: TAF1-BD1 (Homo sapiens, UniProt P21675)
Experiment: TAF1-BD1 TR-FRET Binding Assay
Conditions: read-out: TAF1-BD1 HTRF IC50
pIC50: −log10 of the molar value.
Readout Kind: pIC50

{"columns": ["Compound", "Readout Kind", "Numeric Result"],
 "data": [
  ["CCOC(=O)c1c(C)[nH]c2c(=O)n(C)cc(C#CC3(O)CCNCC3)c12 [Example 12]", "pIC50", 6.12],
  ["CCOC(=O)c1c(C)[nH]c2c(=O)n(C)cc(C#CC(O)(c3ccccc3)C(F)(F)F)c12 (single isomer, unassigned) [Example 91a]", "pIC50", 6.13],
  ["CCOC(=O)c1c(C)[nH]c2c(=O)n(C)cc(C#CC3(O)CCOCC3)c12 [Example 88]", "pIC50", 5.95],
  ["Cc1[nH]c2c(=O)n(C)cc(C#CC(C)(O)CO)c2c1C(=O)OCC(C)C (centres unmarked) [Example 127]", "pIC50", 6.14],
  ["CCOC(=O)c1c(C)[nH]c2c(=O)n(C)cc(C#CC(C)(C)NC(C)=O)c12 [Example 22]", "pIC50", 6.09],
  ["CCOC(=O)c1c(C2CC2)[nH]c2c(=O)n(C)cc(C#CC(C)(C)O)c12 [Example 207]", "pIC50", 6.02],
  ["C=CCCn1cc(C#CC(C)(C)C(N)=O)c2c(C(=O)OCC)c(C)[nH]c2c1=O [Example 48]", "pIC50", 5.89],
  ["Cc1[nH]c2c(=O)n(C)cc(C#CC(C)(O)C3CC3)c2c1-c1nnc(C(C)(C)C)o1 (single isomer, unassigned) [Example 98a]", "pIC50", 6.14]
]}

---

Biological target: TAF1-BD2 (Homo sapiens, UniProt P21675)
Assay: TAF1-BD2 TR-FRET Binding Assay
Conditions: read-out: TAF1-BD2 HTRF IC50
Exam item: assign Condition met to entries whose IC50 is below 50 nM and Condition not met to entries at or above 50 nM. Note that a value of exactly 50 nM receives Condition not met.

{"columns": ["Compound", "System Under Test", "Label Class"],
 "data": [
  ["CCOC(=O)c1c(C)[nH]c2c(=O)n(C)cc(C#CC(O)(c3cccc(-c4cc[nH]n4)c3)C(F)(F)F)c12 (stereo not shown)", "TAF1-BD2 (Homo sapiens, UniProt P21675)", "Condition met"],
  ["Cc1[nH]c2c(=O)n(C)cc(C#CC(C)(O)c3ccccc3)c2c1C(=O)OC(C)(C)C (stereo not shown)", "TAF1-BD2 (Homo sapiens, UniProt P21675)", "Condition not met"],
  ["Cc1[nH]c2c(=O)n(C)cc(C#CC(C)(O)C3CC3)c2c1C(=O)OC(C)(C)CC#N (stereo not shown)", "TAF1-BD2 (Homo sapiens, UniProt P21675)", "Condition met"],
  ["Cc1[nH]c2c(=O)n(C)cc(C#CC(C)(C)O)c2c1C(=O)OCc1ccccc1CO", "TAF1-BD2 (Homo sapiens, UniProt P21675)", "Condition met"],
  ["CCOC(=O)c1c(C)[nH]c2c(=O)n(C)cc(C#CC(C)(C)C(N)=O)c12", "TAF1-BD2 (Homo sapiens, UniProt P21675)", "Condition not met"],
  ["Cc1[nH]c2c(=O)n(C)cc(C#CC(C)(O)C3CC3)c2c1-c1nnc(C(C)(C)C)o1 (single isomer, unassigned) [Example 98b]", "TAF1-BD2 (Homo sapiens, UniProt P21675)", "Condition met"],
  ["CCOC(=O)c1c(C)[nH]c2c(=O)n(C)cc(C#CC(O)(c3cccc(-c4cn[nH]c4)c3)C(F)(F)F)c12 (stereo not shown)", "TAF1-BD2 (Homo sapiens, UniProt P21675)", "Condition met"],
  ["CCOC(=O)c1c(C)[nH]c2c(=O)n(C)cc(C#CC(O)(C3CC3)C(F)(F)F)c12 (stereo not shown)", "TAF1-BD2 (Homo sapiens, UniProt P21675)", "Condition not met"],
  ["CCOC(=O)c1c(C)[nH]c2c(=O)n(C)cc(C#Cc3cncn3C)c12", "TAF1-BD2 (Homo sapiens, UniProt P21675)", "Condition not met"],
  ["CCOC(=O)c1c(C)[nH]c2c(=O)n(C)cc(C#CC(O)(c3ccn(C)n3)C(F)(F)F)c12 (stereo not shown)", "TAF1-BD2 (Homo sapiens, UniProt P21675)", "Condition not met"],
  ["C=CCCn1cc(C#CC(C)(C)C(N)=O)c2c(C(=O)OCC)c(C)[nH]c2c1=O", "TAF1-BD2 (Homo sapiens, UniProt P21675)", "Condition not met"],
  ["CCOC(=O)c1c(C)[nH]c2c(=O)n(C)cc(C#C[C@@](C)(O)c3ncccn3)c12", "TAF1-BD2 (Homo sapiens, UniProt P21675)", "Condition not met"],
  ["CCOC(=O)c1c(C)[nH]c2c(=O)n(C)cc(C#CC(C)(C)NC(C)=O)c12", "TAF1-BD2 (Homo sapiens, UniProt P21675)", "Condition not met"],
  ["CCOC(=O)c1c(C)[nH]c2c(=O)n(C)cc(C#CC(C)(O)c3cccnc3)c12 (stereo not shown)", "TAF1-BD2 (Homo sapiens, UniProt P21675)", "Condition not met"],
  ["CC(=O)NCCCOC(=O)c1c(C)[nH]c2c(=O)n(C)cc(C#CC(O)(c3ccccc3)C(F)(F)F)c12 (stereo not shown)", "TAF1-BD2 (Homo sapiens, UniProt P21675)", "Condition met"],
  ["Cc1[nH]c2c(=O)n(C)cc(C#CC(C)(O)C3CC3)c2c1-c1nnc(CC(C)C)o1 (stereo not shown)", "TAF1-BD2 (Homo sapiens, UniProt P21675)", "Condition met"],
  ["Cc1[nH]c2c(=O)n(C)cc(C#CC(C)(C)O)c2c1C(=O)OC(C)(C)C", "TAF1-BD2 (Homo sapiens, UniProt P21675)", "Condition met"],
  ["CCOC(=O)c1c(C)[nH]c2c(=O)n(C)cc(C#CC(O)(c3cccc(-c4ccccc4OC)c3)C(F)(F)F)c12 (stereo not shown)", "TAF1-BD2 (Homo sapiens, UniProt P21675)", "Condition not met"],
  ["Cc1[nH]c2c(=O)n(C)cc(C#CC(C)(C)O)c2c1C(=O)OCC1CCCC1", "TAF1-BD2 (Homo sapiens, UniProt P21675)", "Condition met"],
  ["CCOC(=O)c1c(C)[nH]c2c(=O)n(C)cc(C#CC(C)(O)c3cccc(F)c3)c12 (stereo not shown)", "TAF1-BD2 (Homo sapiens, UniProt P21675)", "Condition not met"],
  ["CCOC(=O)c1c(C)[nH]c2c(=O)n(C)cc(C#CC(O)(c3cccnc3)C(F)(F)F)c12 (stereo not shown)", "TAF1-BD2 (Homo sapiens, UniProt P21675)", "Condition not met"],
  ["CCC(C)(C)OC(=O)c1c(C)[nH]c2c(=O)n(C)cc(C#C[C@@](C)(O)c3cc(C)on3)c12", "TAF1-BD2 (Homo sapiens, UniProt P21675)", "Condition met"]
]}
